Biological target: T1, cynomolgus monkey KLK5 (cynomolgus monkey, UniProt Q9Y337 67-293 (human entry))
T1 construct: also called cyno KLK5
T1 chain: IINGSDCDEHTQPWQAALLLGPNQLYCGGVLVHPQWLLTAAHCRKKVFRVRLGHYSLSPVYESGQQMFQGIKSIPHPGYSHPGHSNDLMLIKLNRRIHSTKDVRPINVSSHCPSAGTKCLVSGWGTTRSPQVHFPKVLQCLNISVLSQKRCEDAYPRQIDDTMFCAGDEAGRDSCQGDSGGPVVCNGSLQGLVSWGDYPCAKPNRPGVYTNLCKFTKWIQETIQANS
Assay: SPR, one-armed monovalent antibody
metric: kon (M⁻¹ s⁻¹)
Express your answer in M⁻¹ s⁻¹, writing the number without its unit.

{"columns": ["binder", "kon [M⁻¹ s⁻¹]"],
 "data": [
  ["OA.hu.9H5.H14L4.G98Q.H89V.S95Y (antibody, V domains shown, One-armed (OA) monovalent anti-KLK5 antibody with a human IgG1 Fc, with Q38E/Q39K; constant regions and dummy Fc chain not specified) VH: EVQLVESGGGLIQPGGSLRLSCAASGFSLSSYGVSWVRKAPGKGLEYVGFIGSGGFAYYASWAKSRFTISRDNSKNTLYLQMNSLRAEDTAVYYCARDDVQGGKSLDIWGQGTLVTVSS VL: DIQMTQSPSSLSASVGDRVTITCQASQSISSYLSWYQEKPGKAPKLLIYSASTLASGVPSRFSGSGSGTDFTLTISSLQPEDFATYYCVQDYTSYNVDNTFGGGTKVEIK", "4.02e+06"]
]}

Then this binder:
Reported kon for OA.hu.9H5.H14L4.G54A.G98Q.S95Y (antibody, V domains shown, One-armed (OA) monovalent anti-KLK5 antibody with a human IgG1 Fc, with Q38E/Q39K; constant regions and dummy Fc chain not specified) VH: EVQLVESGGGLIQPGGSLRLSCAASGFSLSSYGVSWVRKAPGKGLEYVGFIGSAGFAYYASWAKSRFTISRDNSKNTLYLQMNSLRAEDTAVYYCARDDVQGGKSLDIWGQGTLVTVSS VL: DIQMTQSPSSLSASVGDRVTITCQASQSISSYLSWYQEKPGKAPKLLIYSASTLASGVPSRFSGSGSGTDFTLTISSLQPEDFATYYCHQDYTSYNVDNTFGGGTKVEIK was 5.97e+06
